study system: GCN2 (Homo sapiens, UniProt Q9P2K8)
Sequence (Q9P2K8 whole entry, species assumed): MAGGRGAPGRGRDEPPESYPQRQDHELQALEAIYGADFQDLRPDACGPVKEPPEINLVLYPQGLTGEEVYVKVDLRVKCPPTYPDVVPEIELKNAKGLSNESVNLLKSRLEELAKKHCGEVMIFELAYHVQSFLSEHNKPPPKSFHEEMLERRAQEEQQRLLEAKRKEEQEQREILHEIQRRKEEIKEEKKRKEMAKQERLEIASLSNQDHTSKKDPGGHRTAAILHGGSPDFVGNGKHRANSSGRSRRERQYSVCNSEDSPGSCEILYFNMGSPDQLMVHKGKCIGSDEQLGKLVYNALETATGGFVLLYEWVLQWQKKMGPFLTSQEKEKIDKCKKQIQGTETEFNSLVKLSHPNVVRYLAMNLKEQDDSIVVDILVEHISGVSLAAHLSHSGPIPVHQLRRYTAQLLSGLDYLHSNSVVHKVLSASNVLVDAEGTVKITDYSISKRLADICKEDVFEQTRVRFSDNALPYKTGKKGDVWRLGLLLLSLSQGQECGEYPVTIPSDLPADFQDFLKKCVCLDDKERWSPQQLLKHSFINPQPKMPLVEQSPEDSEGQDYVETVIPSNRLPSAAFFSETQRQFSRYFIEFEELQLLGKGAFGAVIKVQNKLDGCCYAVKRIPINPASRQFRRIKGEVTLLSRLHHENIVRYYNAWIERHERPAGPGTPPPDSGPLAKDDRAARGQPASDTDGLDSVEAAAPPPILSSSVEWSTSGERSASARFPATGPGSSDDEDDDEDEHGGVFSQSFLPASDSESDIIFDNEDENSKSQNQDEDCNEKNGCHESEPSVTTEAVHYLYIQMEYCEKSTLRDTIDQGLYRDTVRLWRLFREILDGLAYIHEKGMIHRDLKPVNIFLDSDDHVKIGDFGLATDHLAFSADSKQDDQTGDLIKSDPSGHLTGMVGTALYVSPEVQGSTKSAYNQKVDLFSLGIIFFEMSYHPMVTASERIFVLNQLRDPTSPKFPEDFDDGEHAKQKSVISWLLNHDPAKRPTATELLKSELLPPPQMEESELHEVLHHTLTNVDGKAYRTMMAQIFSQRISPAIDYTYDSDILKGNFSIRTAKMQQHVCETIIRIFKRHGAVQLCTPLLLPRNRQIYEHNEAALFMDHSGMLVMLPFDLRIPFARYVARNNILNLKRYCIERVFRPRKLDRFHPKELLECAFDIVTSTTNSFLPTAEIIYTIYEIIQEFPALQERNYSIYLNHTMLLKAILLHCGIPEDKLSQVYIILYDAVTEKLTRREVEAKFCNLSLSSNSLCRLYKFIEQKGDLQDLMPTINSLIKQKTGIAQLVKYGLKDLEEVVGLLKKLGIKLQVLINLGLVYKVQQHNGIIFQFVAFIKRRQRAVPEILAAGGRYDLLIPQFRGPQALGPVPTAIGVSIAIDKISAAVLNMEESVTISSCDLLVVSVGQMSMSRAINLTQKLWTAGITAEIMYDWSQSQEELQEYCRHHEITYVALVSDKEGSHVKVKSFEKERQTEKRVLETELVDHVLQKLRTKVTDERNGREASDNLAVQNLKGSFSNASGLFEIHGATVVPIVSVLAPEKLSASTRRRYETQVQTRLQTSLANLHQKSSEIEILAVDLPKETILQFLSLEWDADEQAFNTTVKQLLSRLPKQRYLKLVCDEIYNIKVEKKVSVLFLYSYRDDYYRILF
protocol summary: GCN2 enzyme assay (TR-FRET Lanthascreen, phosphorylation of GFP-eIF2alpha)
Type: biochemical
condition description: 10 μM ATP, 80 nM GFP-eIF2alpha, 30 nM GCN2, room temperature
Give IC50 for every item shown.

Worked examples, 3 compounds total:
1. COCCOc1ccc(-n2nnc3cnc(Nc4cnn([C@H]5CC[C@@H](O)CC5)c4)nc32)cc1
< 300 nM
2. Cn1ccc(-n2nnc3cnc(Nc4cnn(C5CCOCC5)c4)nc32)n1
300 to 3000 nM
3. COc1ccc(-n2nnc3cnc(Nc4cnn(C5CCN(C)CC5)c4)nc32)cc1
< 300 nM

Please supply IC50 for each of the following items, keeping them in order.
1. CC(C)CCn1cc(Nc2ncc3nnn(-c4ccc5ncccc5c4)c3n2)cn1
2. COc1ccc(-n2nnc3cnc(Nc4cnn(C5COC5)c4)nc32)cc1
3. CN1CCC(n2cc(Nc3ncc4nnn(-c5ccccc5)c4n3)cn2)CC1
4. CC(C)(F)c1ccc(-n2nnc3cnc(Nc4cnn(C5CCOCC5)c4)nc32)cc1

< 300 nM
< 300 nM
300 to 3000 nM
< 300 nM

Quick one: give me IC50 for each item below, same order please.
1. CCn1cc(Nc2ncc3nnn(-c4ccc(C(C)(C)OCCO)cc4)c3n2)cn1
2. CCCCOc1ccc(-n2nnc3cnc(Nc4cnn(CCC5CCNCC5)c4)nc32)cn1
3. COCCOc1ccc(-n2nnc3cnc(Nc4cnn(C5CCN(C)CC5)c4)nc32)cc1
4. O[C@H]1CC[C@H](n2cc(Nc3ncc4nnn(-c5ccc(Cl)c(F)c5)c4n3)cn2)CC1

["< 300 nM", "300 to 3000 nM", "< 300 nM", "< 300 nM"]

Report IC50 for every entry below.
1. CN1CCC(n2cc(Nc3ncc4nnn(-c5ccn(C)n5)c4n3)cn2)CC1
2. O[C@H]1CC[C@@H](n2cc(Nc3ncc4nnn(-c5ccc6nccnc6c5)c4n3)cn2)CC1
3. CCn1cc(-n2nnc3cnc(Nc4cnn(CCC(C)C)c4)nc32)cn1

1: 300 to 3000 nM; 2: < 300 nM; 3: < 300 nM

Attribution: patent US9409914B2
